Below, each of the binders is paired with its reported CD25+ (Vg9+ cells), flow staining value.
Molecular target: T1, T cell receptor (TCR) Vγ9 (TRGV9) (human, UniProt Q99603 21-122); note: test concentration or dose not given here
T1 chain (looked up): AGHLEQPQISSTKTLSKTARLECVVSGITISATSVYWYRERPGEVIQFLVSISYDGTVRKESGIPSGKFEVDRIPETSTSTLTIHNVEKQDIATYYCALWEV
Test: cell-based or functional assay
Numeric only. Scale: %

binder="VG9B127 (antibody, human IgG1, kappa, V domains shown) VH: QVQLVESGGGLVKPGGSLRLSCTASGFTFGAYTMNWVRQAPGKGLEWVSSISSSSSYIDFAESVKGRFTISRDNAKNSLYLQMISLRAEDTAVYYCARDGDIVSTIRGSFDYWGQGALVTVSS VL: EIVMTQSPLSLPVTPGEPASISCRSSQSLLDSDDGNTYLDWYLQKPGQSPQLLIYTLSYRASGVPDRFSGSGSGTDFTLKISRVEAEDVGIYYCMQRIEFPITFGQGTKVEIKR" result_number=37.3
binder="VG9B33 (antibody, human IgG1, kappa, V domains shown) VH: EVQLVESGGGLVKPGGSLRLSCAASGFTFSSYNMNWVRQAPGKGLEWVSSISTSSSYIYYADSVKGRFTISRDNAKNSLYLQMNGLRAEDTAVYYCARDTSVTKYPDTFDIWGQGTMVTVSS VL: DIVMTQSPSSLSASVGDRVTITCRASQDINNYLAWFQQKPGKVPNLLIYGASTLQSGVPSRFTGSGSGTDFTLTISSLQPEDVATYYCQKYNSAPFTFGPGTKVDIKR" result_number=28
binder="VG9B44 (antibody, human IgG1, kappa, V domains shown) VH: QVQLQQSGPGLVKPSQTLSLTCAISGDSVSSNSAAWNWIRQSPSRGLEWLGRTYYRSKWYNDYPISVKSRISINPDTSKNQFSLQLNSVTPEDTAVYYCARESGSYYTDGFDIWGQGTMVTVSS VL: DIQMTQSPSFLSASVGDRVTITCRASQGISSYLAWYQQKPGKAPKLLIYAASTLQSGVPSRFSGSGSGTEFTLTISSLQPEDFATYYCQEFNSYPYTFGQGTKLEIKR" result_number=45.4

Next, consider the following binder.
Please look at this binder and report its CD25+ (Vg9+ cells), flow staining: VG9B162 (antibody, human IgG1, lambda, V domains shown) VH: QVQLVESGAEVTKPGASVKVSCKASGYTFTGDYMHWVRQAPGQGLEWMGWINPNSGYTNYAQKFQGRVTMTRDTSISTAYMELSRLRSDDTAVYYCAREGDAFDVWGQGTMVTVSS VL: QLVLTQSSSASGSPGQSVTISCTGTSSDVGGYNYVSWYQQHPGKAPKLMIYEVSKRPSGVPDRFSGSKSGNTASLTVSGLQAEDEADYYCNSYAGSNNFEVFGGGTKLTVLG
9.7

These entries and their values trace back to patent US20220125947A1.
